The following binders are listed with their measured EC50 values.
- System: T1, human Aβ peptide (1-40) biotinylated at the C terminus (human, UniProt P05067 672-711, biotinylated at the C-terminus)
- T1 construct: domain: β-amyloid peptide (1-40); Numbers 1-40 count on the β-amyloid peptide, not on APP; also called beta-amyloid 1-40 peptide (biotinylated at the C-terminus); streptavidin-captured beta-amyloid (1-40)
- T1 sequence (P05067 672-711 limits assumed): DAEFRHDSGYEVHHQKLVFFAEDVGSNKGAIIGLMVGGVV
- Test: Aβ binding ELISA with culture supernatant, Aβ peptide (1-40)
Please respond with the number in µg/mL and leave the unit unwritten.

Please review the following examples before continuing.
Binder	EC50, µg/mL
H2L1 Fab, H2 heavy chain truncated at residue 224 of the hinge region (Fab, V domains shown, Recombinant Fab from CHOK1 culture supernatant; also called (a) H2L1 Fab) VH: EVQLVESGGGLVQPGGSLRLSCAVSGFTFSDNGMAWVRQAPGKGLEWVSFISNLAYSIDYADTVTGRFTISRDNAKNSLYLQMNSLRAEDTAVYYCVSGTWFAYWGQGTLVTVSS VL: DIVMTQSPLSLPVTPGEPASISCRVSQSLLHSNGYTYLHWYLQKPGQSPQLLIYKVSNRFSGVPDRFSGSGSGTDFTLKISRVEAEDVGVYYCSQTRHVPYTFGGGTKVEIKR	0.239
Humanised 2E7 variant H2L1 (antibody, human IgG1, kappa, V domains shown, Human IgG1 with L235A and G237A, human kappa; also called L1+H2; H2L1 whole IgG) VH: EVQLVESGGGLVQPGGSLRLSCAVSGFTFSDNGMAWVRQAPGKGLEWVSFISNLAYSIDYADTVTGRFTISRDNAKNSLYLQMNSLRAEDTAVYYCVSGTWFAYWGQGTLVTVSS VL: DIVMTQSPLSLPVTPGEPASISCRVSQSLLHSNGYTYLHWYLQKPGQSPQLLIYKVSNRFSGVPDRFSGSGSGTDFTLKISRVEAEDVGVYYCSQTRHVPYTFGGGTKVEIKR	0.113

[Q] For H2L1 Fab cys, H2 heavy chain truncated at the second cysteine in the hinge region at residue 226 (Fab, V domains shown, Recombinant Fab from CHOK1 culture supernatant; also called (b) H2L1 Fab cys) VH: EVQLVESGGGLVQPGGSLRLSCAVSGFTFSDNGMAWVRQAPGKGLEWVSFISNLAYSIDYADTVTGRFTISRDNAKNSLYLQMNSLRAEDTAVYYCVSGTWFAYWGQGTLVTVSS VL: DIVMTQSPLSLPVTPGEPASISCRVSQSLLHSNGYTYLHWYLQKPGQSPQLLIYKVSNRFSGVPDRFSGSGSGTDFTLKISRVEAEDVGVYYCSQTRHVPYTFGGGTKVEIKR , what is its reported EC50?
[A] 0.226
